System: Botrytis cinerea
assay_summary: Test for Botrytis cinerea controlling effect on cucumbers
Assay type: in vivo
test_parameters: 50 ppm
Please respond with reported Percentage of control for every item in the list.
Numbers only, in %.

CC12CC1(Br)C(=O)N(c1cc(Cl)cc(Cl)c1)C2=O (centres unmarked) = 95

Hi team, please reply with Percentage of control for each item in this list.
1. O=C1C2CC2(Cl)C(=O)N1c1cc(Cl)cc(Cl)c1 (centres unmarked)
2. CCCCNC(=O)n1c(NC(=O)OC)nc2ccccc21 [reference compound]
3. CC12CC1(Cl)C(=O)N(c1cc(Br)cc(Br)c1)C2=O (centres unmarked)
4. CC1C2C(=O)N(c3cc(Cl)cc(Cl)c3)C(=O)C12Cl (centres unmarked)

*A*
1. 100
2. 90
3. 92
4. 100
